Where do these numbers come from? They come from PubChem BioAssay (NCI).

test method notes: NCI Yeast Anticancer Drug Screen. Data for the bub3 strain (AID 167)
protocol conditions: S. cerevisiae bub3 mutant strain, at 50.0 µM (retest, dose inferred, filed as 5.0), hits give high values
Compounds without any hit were thinned out: in the full panel of roughly 79,000, 15% have a hit.
Classify as follows. Reported growth inhibition greater than or equal to 90%: True. Reported growth inhibition below: False.

1) c1cc[c]([Sn]([CH]2c3ccccc3-c3ccccc32)([CH]2c3ccccc3-c3ccccc32)[CH]2c3ccccc3-c3ccccc32)cc1 | False
2) COC(=O)C1=Cc2cc3c(cc2[C@H](c2ccc4c(c2)OCO4)C1C(=O)OC)OCO3 (stereo not given in full) | False
3) Cc1ccc2c(c1)CSCCO2 | True
4) CCN1CCC(O)(/C=C/c2ccccc2)C(C(=O)/C=C/c2ccccc2)C1 (stereo not given) | True
